- Test system: HEK-293T
- Experiment Notes: Multiplex assay against HEK293T
- Assay type: toxicity, cell-based
- Assay Context: human, 48 h, 1 µM, compound concentration 1 uM, replicate 1
Can you tell me Population Membrane Permeable-Phenotype (%) for the items I'm about to list?
Please give a number only; it is taken to be in %.

Supply Population Membrane Permeable-Phenotype (%) value. Item: Cl.N=C(N)NC(=O)Cc1c(Cl)cccc1Cl [GUANFACINE HYDROCHLORIDE]
1

Supply Population Membrane Permeable-Phenotype (%) value. Item: Cl.NCCc1ccc(O)c(O)c1 [DOPAMINE HYDROCHLORIDE]
1

Supply Population Membrane Permeable-Phenotype (%) value. Item: C[C@H](N)COC(=O)[C@@H](CCCCN)NC(=O)Cc1c(-c2ccc3ccccc3c2)[nH]c2c1ccc1ccccc12
2

Supply Population Membrane Permeable-Phenotype (%) value. Item: Cc1noc(-c2ccc(-c3ccc(CC(=O)O)cc3)cc2)c1NC(=O)O[C@H](C)c1ccccc1Cl
1

Supply Population Membrane Permeable-Phenotype (%) value. Item: CC(/C=C1\SC(=S)N(CCCC(=O)Nc2ccc(C(=O)O)c(O)c2)C1=O)=C\c1ccccc1
1

Supply Population Membrane Permeable-Phenotype (%) value. Item: Br.CS(=O)(=O)Nc1c(O)ccc2c1CCCC2C1=NCCN1 (centres undefined)
0

Supply Population Membrane Permeable-Phenotype (%) value. Item: CC(C)(C)c1cc(NC(=O)Nc2ccc(-c3cn4c(n3)sc3cc(OCCN5CCOCC5)ccc34)cc2)no1
2

Supply Population Membrane Permeable-Phenotype (%) value. Item: CC(C)c1noc(N2CCC(COc3ccc(-c4ccc(S(C)(=O)=O)cc4)nc3)CC2)n1
1

Supply Population Membrane Permeable-Phenotype (%) value. Item: CCCOc1ccc2[nH]cc(C3=CCNCC3)c2n1.Cl
0

Supply Population Membrane Permeable-Phenotype (%) value. Item: CCCCC1=NC2(CCCC2)C(=O)N1Cc1ccc(-c2ccccc2-c2nnn[nH]2)cc1
0

Supply Population Membrane Permeable-Phenotype (%) value. Item: Cc1c(CC(=O)O)c2cccnc2n1Cc1ccc(S(C)(=O)=O)cc1C(F)(F)F
2

Supply Population Membrane Permeable-Phenotype (%) value. Item: CN1CCN(c2cc(-c3ccccc3)nc(N)n2)CC1
1

Supply Population Membrane Permeable-Phenotype (%) value. Item: CCCCCC(O)/C=C/[C@H]1C(=O)CC(O)C1C/C=C\CCCC(=O)O (some centres undefined)
1

Supply Population Membrane Permeable-Phenotype (%) value. Item: Cc1cccc(NC(=O)CN2CCC(c3ccccn3)CC2)c1.Cl.Cl
0

Supply Population Membrane Permeable-Phenotype (%) value. Item: NCCc1cn(S(=O)(=O)c2c(Cl)nc3sccn23)c2ccccc12.O=C(O)C(=O)O
0

Supply Population Membrane Permeable-Phenotype (%) value. Item: Cc1cnc(-c2cc(N3CCN(C(=O)CCS(C)(=O)=O)CC3)ncc2Cl)c(C)c1
1

Supply Population Membrane Permeable-Phenotype (%) value. Item: N#Cc1c(Oc2cccc(OS(=O)(=O)CCCC(F)(F)F)c2)cccc1C(F)(F)F
1

Supply Population Membrane Permeable-Phenotype (%) value. Item: Cc1onc(-c2ccccc2Cl)c1C(=O)N(C)c1ccc(Cl)cc1
0

Supply Population Membrane Permeable-Phenotype (%) value. Item: CN[C@@H](C)C(=O)N[C@H](C(=O)N1CCC[C@H]1C(=O)Nc1snnc1-c1ccccc1)C1CCCCC1
1

Supply Population Membrane Permeable-Phenotype (%) value. Item: CC(=O)Nc1cccc2c1c(Sc1ccc(Cl)cc1)c(C)n2CC(=O)O
1

Supply Population Membrane Permeable-Phenotype (%) value. Item: N#Cc1cc(F)cc(-c2nc(-c3ccc(F)cn3)no2)c1
1

Supply Population Membrane Permeable-Phenotype (%) value. Item: O=C1[C@H](Cc2ccc(O)cc2)N2C(=O)CCN(C(=O)NCc3ccccc3)[C@H]2CN1Cc1cccc2ccccc12
0

Supply Population Membrane Permeable-Phenotype (%) value. Item: O=C(CCCc1ccccc1)Nc1nc2ccccc2c(=O)s1
1

Supply Population Membrane Permeable-Phenotype (%) value. Item: CCc1cc2cc(NS(=O)(=O)c3ccc(C#N)cc3)ccc2n(CC)c1=O
1

Supply Population Membrane Permeable-Phenotype (%) value. Item: CC(C)COc1ccc(CNC(=O)N(Cc2ccc(F)cc2)C2CCN(C)CC2)cc1
1

Supply Population Membrane Permeable-Phenotype (%) value. Item: CC[C@@H](C)Nc1nc(C)nc2c(-c3ccc(OC)nc3C)c(C)nn12
0

Supply Population Membrane Permeable-Phenotype (%) value. Item: COc1ccccc1N1CCN(C[C@@H](C(=O)NC(C)(C)C)c2ccccc2)CC1.Cl.Cl
1

Supply Population Membrane Permeable-Phenotype (%) value. Item: CCCCC(=O)N(Cc1ccc(-c2ccccc2-c2nnn[nH]2)cc1)[C@H](C(=O)O)C(C)C
1

Supply Population Membrane Permeable-Phenotype (%) value. Item: CN(C)C(=O)Cn1cc(-c2ccc(-c3cncc4ccccc34)cc2)cn1
1

====

Can you tell me Population Mitotic Cells (%) for the items I'm about to list?
- Tested on: U2OS
- Experiment Notes: Multiplex assay against U2OS
- Format: toxicity, cell-based
- Assay Context: human, 12 h, 1 µM, compound concentration 1 uM, replicate 1
Please give a number only; it is taken to be in %.

Supply Population Mitotic Cells (%) value. Item: COC[C@@H](c1ccc(C(F)(F)F)cc1)N1CCN(C2(C)CCN(C(=O)c3c(C)ncnc3C)CC2)C[C@@H]1C.O=C(O)/C=C\C(=O)O [VICRIVIROC MALEATE]
17

Supply Population Mitotic Cells (%) value. Item: CCCOc1ccc2[nH]cc(C3=CCNCC3)c2n1.Cl
19

Supply Population Mitotic Cells (%) value. Item: CCc1cc2cc(NS(=O)(=O)c3ccc(C#N)cc3)ccc2n(CC)c1=O
11

Supply Population Mitotic Cells (%) value. Item: C[C@H](N)COC(=O)[C@@H](CCCCN)NC(=O)Cc1c(-c2ccc3ccccc3c2)[nH]c2c1ccc1ccccc12
26

Supply Population Mitotic Cells (%) value. Item: Cc1c(CC(=O)O)c2cccnc2n1Cc1ccc(S(C)(=O)=O)cc1C(F)(F)F
19

Supply Population Mitotic Cells (%) value. Item: CC(C)(C)c1cc(NC(=O)Nc2ccc(-c3cn4c(n3)sc3cc(OCCN5CCOCC5)ccc34)cc2)no1
51

Supply Population Mitotic Cells (%) value. Item: N#Cc1cc(F)cc(-c2nc(-c3ccc(F)cn3)no2)c1
44

Supply Population Mitotic Cells (%) value. Item: Cc1noc(-c2ccc(-c3ccc(CC(=O)O)cc3)cc2)c1NC(=O)O[C@H](C)c1ccccc1Cl
5

====

Can you tell me Total Cell Count for the items I'm about to list?
- Test system: Fibroblast
- Experiment Notes: Multiplex assay against human fibroblast
- Type: toxicity, cell-based
- Assay Context: 24 h, 10 µM, compound concentration 10 uM, replicate 1

Retrieve Total Cell Count on Fibroblast; query N#Cc1c(Oc2cccc(OS(=O)(=O)CCCC(F)(F)F)c2)cccc1C(F)(F)F
174

Retrieve Total Cell Count on Fibroblast; query NCCc1cn(S(=O)(=O)c2c(Cl)nc3sccn23)c2ccccc12.O=C(O)C(=O)O
193

Retrieve Total Cell Count on Fibroblast; query CCc1cc2cc(NS(=O)(=O)c3ccc(C#N)cc3)ccc2n(CC)c1=O
130

Retrieve Total Cell Count on Fibroblast; query COc1cccc2c1c(NS(=O)(=O)c1ccc(Cl)s1)nn2Cc1cccc(CNC(=O)C(C)(C)O)c1
190

Retrieve Total Cell Count on Fibroblast; query Cl.NCCc1ccc(O)c(O)c1 [DOPAMINE HYDROCHLORIDE]
136

Retrieve Total Cell Count on Fibroblast; query Cc1cnc(-c2cc(N3CCN(C(=O)CCS(C)(=O)=O)CC3)ncc2Cl)c(C)c1
135

Retrieve Total Cell Count on Fibroblast; query COC[C@@H](c1ccc(C(F)(F)F)cc1)N1CCN(C2(C)CCN(C(=O)c3c(C)ncnc3C)CC2)C[C@@H]1C.O=C(O)/C=C\C(=O)O [VICRIVIROC MALEATE]
196

Retrieve Total Cell Count on Fibroblast; query CN(C)C(=O)Cn1cc(-c2ccc(-c3cncc4ccccc34)cc2)cn1
113

Retrieve Total Cell Count on Fibroblast; query CC(C)c1noc(N2CCC(COc3ccc(-c4ccc(S(C)(=O)=O)cc4)nc3)CC2)n1
168

====

- Tested on: Fibroblast
- Experiment Notes: Multiplex assay against human fibroblast
- Assay type: toxicity, cell-based
- Assay Context: 24 h, 10 µM, compound concentration 10 uM, replicate 2
Can you tell me Total Cell Count for the items I'm about to list?
Answer with a bare number; do not write a unit.

Supply Total Cell Count value. Item: CCCCCC(O)/C=C/[C@H]1C(=O)CC(O)C1C/C=C\CCCC(=O)O (stereo not given in full)
101

Supply Total Cell Count value. Item: CN(C)C(=O)Cn1cc(-c2ccc(-c3cncc4ccccc34)cc2)cn1
85

Supply Total Cell Count value. Item: CCc1cc2cc(NS(=O)(=O)c3ccc(C#N)cc3)ccc2n(CC)c1=O
145

Supply Total Cell Count value. Item: CCCOc1ccc2[nH]cc(C3=CCNCC3)c2n1.Cl
107

Supply Total Cell Count value. Item: CC(=O)Nc1cccc2c1c(Sc1ccc(Cl)cc1)c(C)n2CC(=O)O
104
